src = PubChem BioAssay (NCI)

Test system: SF-539 CNS
Protocol Summary: NCI-60 one-dose screen, 48 h (100 = growth as untreated, 0 = no growth, -100 = all killed)
Condition Notes: 10 µM unless noted
The panel holds about 83,000 compounds, 20% with a hit somewhere; the sample as a whole holds those more often.
Assign labels as follows, please: class 1 for growth below 50%; class 0 for growth equal to or exceeding 50%.

Inquiry: growth strictly < 50% for this compound? `Cc1cc2c(-c3nc4ccccn4c3NC3CCCCC3)c(O)c(O)cc2c(O)c1-c1c(C)cc2c(-c3nc4ccccn4c3NC3CCCCC3)c(O)c(O)cc2c1O`
Reply text: class 1

Inquiry: growth strictly < 50% for this compound? `O=C(Nc1ccc(Nc2ncnc3sc4c(c23)CCOC4)cc1)Nc1ccc(Cl)c(C(F)(F)F)c1`
Reply text: class 0

Inquiry: growth strictly < 50% for this compound? `Cc1cc(Nc2nc(N[C@@H](C)c3ncc(F)cn3)ncc2Cl)n[nH]1`
Reply text: class 0

Inquiry: growth strictly < 50% for this compound? `OCCNC(=S)Nc1ccc(-c2nc(N3C[C@H]4CC[C@@H](C3)O4)c3cccn3n2)cc1`
Reply text: class 1

Inquiry: growth strictly < 50% for this compound? `C[C@@H](N)c1ccc(C(=O)Nc2ccnc3[nH]ccc23)cc1`
Reply text: class 1

Inquiry: growth strictly < 50% for this compound? `CCS(=O)(=O)N1CCN(c2ccc(Nc3ncc(C(N)=O)c(NC4CC4)n3)cc2)CC1`
Reply text: class 0

Inquiry: growth strictly < 50% for this compound? `CN1C/C=C\CCOc2cccc(c2)-c2ccnc(n2)Nc2cccc(c2)C1`
Reply text: class 1

Inquiry: growth strictly < 50% for this compound? `Cc1ccc(-n2nc(C(C)(C)C)cc2NC(=O)NCc2cc(F)ccc2Oc2ccc3c(cnn3CCO)c2)cc1`
Reply text: class 1

Inquiry: growth strictly < 50% for this compound? `Cn1cc(-c2ncnc3ccc(-c4cnc(Cl)c(NS(C)(=O)=O)c4)cc23)c2ccccc21`
Reply text: class 1

Inquiry: growth strictly < 50% for this compound? `O=C(Cn1cncn1)Nc1ccc(-c2nc3ccccc3s2)cc1`
Reply text: class 0

Inquiry: growth strictly < 50% for this compound? `CNC(=O)c1cccc2cc(Oc3ccnc4cc(OCC5(N)CC5)c(OC)cc34)ccc12`
Reply text: class 1

Inquiry: growth strictly < 50% for this compound? `CC(C)[C@@H](C)/C=C/[C@@H](C)[C@H]1CCC2=C3C=CC4=CC(=O)CC[C@]4(C)[C@H]3CC[C@@]21C`
Reply text: class 0

====

Tested on: OVCAR-8 ovarian
Protocol Summary: NCI-60 one-dose screen, 48 h
Condition Notes: 10 µM unless noted
This is part of a sample that, as a whole, favours compounds with a hit. Of some 83,000 tested, about 20% had one in any assay. Active and inactive are the calls of the source. How the source made its calls: active means growth percent below 10; inactive means the rest.
Just give me one of these, please: true = active, false = inactive

Inquiry: Each molecule tested received a call. Report the one for `COc1ccc(C(=O)c2cc(OC)c(OC)c(OC)c2)cc1/C=C/C(=O)c1ccc(F)cc1` .
Reply text: false

Inquiry: Each molecule tested received a call. Report the one for `CCCCN1C(=O)c2cccc3c(-c4ccc5c(c4)ncn5C4CCCCC4)ccc(c23)C1=O` .
Reply text: false

Inquiry: Each molecule tested received a call. Report the one for `O=C(CNc1nc2ccccc2s1)Nc1ccc(-c2nc3ccccc3s2)cc1` .
Reply text: false

Inquiry: Each molecule tested received a call. Report the one for `CC(C)(C)CC(C)(C)Nc1c(-c2c(O)c3ccccc3oc2=O)nc2c(Cl)cc(C(F)(F)F)cn12` .
Reply text: false

Inquiry: Each molecule tested received a call. Report the one for `CCN1/C(=C/C=C/c2n(-c3ccccc3)c3ccc(-c4nc5ccccc5s4)cc3[n+]2CC)N(c2ccccc2)c2ccc(-c3nc4ccccc4s3)cc21` .
Reply text: false

Inquiry: Each molecule tested received a call. Report the one for `O=C(Nc1cn[nH]c1-c1nc2ccc(CN3CCOCC3)cc2[nH]1)NC1CC1` .
Reply text: false

Inquiry: Each molecule tested received a call. Report the one for `C=C1C(=O)O[C@H]2[C@H]1CC/C(CNC(=O)c1cc3cc(OC)ccc3[nH]1)=C\CC[C@@]1(C)O[C@@H]21` .
Reply text: true

Inquiry: Each molecule tested received a call. Report the one for `C=CCN(/C=C1/C(=O)O[C@H](COC)[C@@]2(C)C1=C(O)C(=O)C1=C2[C@H](OC(C)=O)C[C@]2(C)C(=O)CC[C@@H]12)CC=C` .
Reply text: false

Inquiry: Each molecule tested received a call. Report the one for `C[C@@H](Oc1cc(-c2cnn(C3CCNCC3)c2)cnc1N)c1c(Cl)ccc(F)c1Cl` .
Reply text: true

Inquiry: Each molecule tested received a call. Report the one for `C/C(=N\NC(=O)Cn1c(-c2ccc(S(C)(=O)=O)cc2)nc2ccccc21)c1ccc(Cl)cc1` .
Reply text: false

Inquiry: Each molecule tested received a call. Report the one for `CCc1nc2cc(/C=C/C(=O)NO)ccc2c(=O)n1CCc1ccc(OC)cc1` .
Reply text: false

Inquiry: Each molecule tested received a call. Report the one for `CC#CC(=O)N1CCC[C@H]1c1nc(-c2ccc(C(=O)Nc3ccccn3)cc2)c2c(N)nccn12` .
Reply text: false

Inquiry: Each molecule tested received a call. Report the one for `Cc1cccc(Cl)c1NC(=O)c1cnc(Nc2cc(N3CCOCC3)cc(N3CCOCC3)c2)s1` .
Reply text: true

Inquiry: Each molecule tested received a call. Report the one for `Cc1ccc(-c2nc3ccc(Cl)cn3c2NC2CCCCC2)o1` .
Reply text: false

Inquiry: Each molecule tested received a call. Report the one for `CC(C)(C)c1ccc(Cn2cc(CSc3nc4ccccc4s3)nn2)cc1` .
Reply text: false

Inquiry: Each molecule tested received a call. Report the one for `CCN(CCCOc1ccc2c(Nc3cc(CC(=O)Nc4cccc(F)c4)[nH]n3)ncnc2c1)CCOP(=O)(O)O` .
Reply text: false

Inquiry: Each molecule tested received a call. Report the one for `Cn1ccnc1C(=O)/C=C/c1ccc(CC(=O)Nc2ccc(S(F)(F)(F)(F)F)cc2)cc1` .
Reply text: true

Inquiry: Each molecule tested received a call. Report the one for `COCc1c(-c2ccc(NC(=O)Nc3cc(C(F)(F)F)ccc3F)c(F)c2)c2c(N)ncnn2c1CN1CCOCC1` .
Reply text: true

Inquiry: Each molecule tested received a call. Report the one for `Cc1cc(Nc2ncnc3ccc(NC4=NC(C)(C)CO4)cc23)ccc1Oc1ccn2ncnc2c1` .
Reply text: false

Inquiry: Each molecule tested received a call. Report the one for `COc1ccc(/C(C)=C(\c2ccc(Cl)cc2)c2ccc(OCCN3CCCCCC3)cc2)cc1` .
Reply text: false

Inquiry: Each molecule tested received a call. Report the one for CCCC(=O)OCC1OC(n2cnc3c(=S)nc[nH]c32)C(OC(=O)CCC)C1OC(=O)CCC (stereo not drawn) .
Reply text: true

Inquiry: Each molecule tested received a call. Report the one for `CNC(=O)c1cc(Oc2ccc(NC(=O)Nc3ccc(Cl)c(C(F)(F)F)c3)c(F)c2)ccn1` .
Reply text: true

Inquiry: Each molecule tested received a call. Report the one for `COc1ccc2nc3cc(Cl)ccc3c(Nc3ccc(N(C)C)cc3)c2c1` .
Reply text: false

====

What growth was measured for each of the following?
Test system: NCI-H226 lung
Protocol Summary: NCI-60 one-dose screen, 48 h (100 = growth as untreated, 0 = no growth, -100 = all killed)
Condition Notes: 10 µM unless noted
Method: Growth inhibition of the NCI-H226 human Non-Small Cell Lung tumor cell line is measured as a screen for anti-cancer activity. Cells are grown in 96 well plates and exposed to the test compound for 48 hours. Compounds are tested at a single concentration, which is 10^-5 M for most compounds. The reported endpoint is percent growth (GI% or GIPRCNT), where numbers from 0 - 100% represent growth inhibition, and numbers from -100% - 0 represent cell death. […]
The panel holds about 83,000 compounds, 20% with a hit somewhere; the sample as a whole holds those more often. The source made the active and inactive calls. Rule for the calls: active = growth percent below 10; inactive = the rest.

Inquiry: What growth value was documented for this compound, CC(N)C(Cc1ccc(Cl)cc1)c1ccc(Cl)cc1 (centres undefined) ?
Reply text: 88.2% (inactive)

Inquiry: What growth value was documented for this compound, `Cc1nc(NC(=O)N2CCC[C@H]2C(N)=O)sc1-c1ccnc(C(C)(C)C(F)(F)F)c1` ?
Reply text: 71% (inactive)

Inquiry: What growth value was documented for this compound, `COc1cc2nccc(Oc3ccc(NC(=O)Nc4cc(C)on4)c(Cl)c3)c2cc1OC` ?
Reply text: 23.1% (inactive)

Inquiry: What growth value was documented for this compound, `CC(C)(C)CC(C)(C)Nc1c(-c2c(O)c3ccccc3oc2=O)nc2c(Cl)cc(C(F)(F)F)cn12` ?
Reply text: 97.5% (inactive)

Inquiry: What growth value was documented for this compound, `N#CCNC(=O)c1ccc(-c2ccnc(Nc3ccc(N4CCOCC4)cc3)n2)cc1` ?
Reply text: -3.52% (active)

Inquiry: What growth value was documented for this compound, `O=C(c1ccc(F)c(F)c1Nc1ccc(I)cc1F)N1CC(O)([C@@H]2CCCCN2)C1` ?
Reply text: 39.4% (inactive)

Inquiry: What growth value was documented for this compound, `Cn1ccnc1C(=O)/C=C/c1ccc(CC(=O)Nc2ccc(Br)cc2)cc1` ?
Reply text: 43.2% (inactive)

Inquiry: What growth value was documented for this compound, `C[C@@]1(C(=O)Nc2ccc(F)nc2)CCCN1c1nc(Nc2cc(C3CC3)[nH]n2)c2cccn2n1` ?
Reply text: 30.1% (inactive)

Inquiry: What growth value was documented for this compound, `CCOc1ccc(N=C(C)Nc2ccc(OCC)cc2)cc1` ?
Reply text: 110% (inactive)

Inquiry: What growth value was documented for this compound, `O=C(Nc1nc2cccc(-c3ccc(CN4CCS(=O)(=O)CC4)cc3)n2n1)C1CC1` ?
Reply text: 55.9% (inactive)

Inquiry: What growth value was documented for this compound, `COc1cc2cc(NCc3ccc(Cl)cc3)nc(C)c2cc1OC` ?
Reply text: 35.5% (inactive)

Inquiry: What growth value was documented for this compound, `CCc1nc2ccc(Cc3ccc(C(=O)NO)cc3)cc2c(=O)n1CCc1ccccc1` ?
Reply text: -28.5% (active)

Inquiry: What growth value was documented for this compound, CC1(O)CCC(Nc2cc(-c3ccc(C(F)(F)F)cc3)c(C#N)c3nc4ccccc4n23)CC1 (centres undefined) ?
Reply text: 71% (inactive)

Inquiry: What growth value was documented for this compound, `C[C@@H](NC(=O)c1ncnc(N)c1Cl)c1ncc(C(=O)Nc2cc(C(F)(F)F)c(Cl)cn2)s1` ?
Reply text: 78.6% (inactive)

Inquiry: What growth value was documented for this compound, `C=CCn1c(=O)c2cnc(Nc3ccc(N4CCN(C)CC4)cc3)nc2n1-c1cccc(C(C)(C)O)n1` ?
Reply text: 40% (inactive)

Inquiry: What growth value was documented for this compound, `Cn1cc(-c2cnn3c(N)c(Br)c([C@@H]4CCCNC4)nc23)cn1` ?
Reply text: 60% (inactive)

Inquiry: What growth value was documented for this compound, `Cn1ncc(Cl)c1-c1cc(C(=O)N[C@H](CN)Cc2ccc(F)c(F)c2)oc1Cl` ?
Reply text: 11.8% (inactive)

Inquiry: What growth value was documented for this compound, `CN1CCN(CC(=O)Nc2ccc(-c3nc4ccccc4s3)cc2)CC1` ?
Reply text: 96.2% (inactive)

Inquiry: What growth value was documented for this compound, `Cc1cc(NCC(=O)Nc2ccc(-c3nc4ccccc4s3)cc2)no1` ?
Reply text: 91% (inactive)

Inquiry: What growth value was documented for this compound, `CCN(CCN(C)C)C(=O)CNCc1cc(C(N)=O)ccn1` ?
Reply text: 89.1% (inactive)

Inquiry: What growth value was documented for this compound, CC1=CC2c3oc(-c4ccccc4)c(C(=O)c4ccccc4)c3CNC2C=C1 (centres undefined) ?
Reply text: 83.8% (inactive)

Inquiry: What growth value was documented for this compound, COc1ccc(C2CC(=O)c3c(O)c(OC)c(OC)c(OC)c3O2)cc1O (centres undefined) ?
Reply text: 89.2% (inactive)

Inquiry: What growth value was documented for this compound, `CNC(=O)c1cc(Oc2ccc3nc(NC(=O)Nc4ccc(Cl)c(C(F)(F)F)c4)sc3c2)ccn1` ?
Reply text: 20.6% (inactive)

Inquiry: What growth value was documented for this compound, `Oc1ccc(/C=N/Nc2nnc(N/N=C/c3ccc(O)cc3O)c3ccccc23)c(O)c1` ?
Reply text: -39.5% (active)
